# runDescription: qHTS assay to identify inhibitors of the type 1 interferon - major histocompatibility complex class I in skeletal muscle: Counter screen cell viability and HiBit confirmation (AID 1347412); further: on the % scale 0 is the no-effect control and ±100 the full control effect
# conditionLabel: iHSKM muscle cells + IFN-b, HiBiT or CellTiter-Glo, 24 h; Viability; at 45.9 µM (top of the series)
Inconclusive results are not listed.

smilesString	activity change, negative = inhibition (%)
CNC(=O)c1nn(C)c2c1C(C)(C)Cc1cnc(Nc3ccc(N4CCN(C)CC4)cc3)nc1-2	28.9
COC(=O)Nc1nc2ccc(C(=O)c3ccc(F)cc3)cc2[nH]1	-28.8
CC[C@@H]1C(=O)N(C)c2cnc(Nc3ccc(C(=O)NC4CCN(C)CC4)cc3OC)nc2N1C1CCCC1	-4.51
Nc1ccccc1NC(=O)c1ccc(CNc2nccc(-c3cccnc3)n2)cc1	3.24
